Recorded values, source ChEMBL document CHEMBL3301472.

assay: MMV: MTT Cytotoxicity Assay Day 7 pi of Assay #6 (compound washed out Day 1 pi), U87-CD4-CCR5 cells, % cell death @ 5mM compound; format: toxicity, cell-based; conditions: human, u87-cd4-ccr5, 5000 µM
This listing pairs molecules with measured % Cell Death.
Answer field: number only, no words.

A selection of reference data follows.
# molecule, readout, obsValue
data = [
    ("CCOC(=O)c1c(C)n(-c2ccccc2)c2ccc(OC(=O)c3cc(OC)c(OC)c(OC)c3)cc12", "% Cell Death", -12),
    ("CCCOCc1cc(CN2CCN(c3cccc(Cl)c3)CC2)c(O)c2ncccc12", "% Cell Death", -8),
    ("CCCCCC(=O)N1c2ccccc2N=C2CC(c3ccc(OC)c(OC)c3)CC(O)=C2C1c1ccc(C(F)(F)F)cc1 (stereo not given)", "% Cell Death", 5),
    ("CC(C)CCNCC(O)Cn1c2ccccc2c2ccccc21.Cl (stereo not given)", "% Cell Death", -10),
]

molecule "CSc1ccccc1C(=O)Nc1nc(-c2ccccn2)cs1" , % Cell Death observed: 18

So for "Cc1ccc(Nc2nc(N)c3ccccc3n2)cc1Cl" , the logged % Cell Death turned out to be -17

Form: molecule = COc1ccc(CCNC(=O)c2cc(S(=O)(=O)N3CC(C)CC(C)C3)ccc2Sc2ccc(F)cc2)cc1OC (stereo not given) ; % Cell Death = -8

% Cell Death reported for this molecule "Cc1cc(NC(=O)c2cccc(C(F)(F)F)c2)n(-c2nc(-c3ccc4c(c3)OCO4)cs2)n1" : 16

Entry "Oc1c(CN2CCN(c3ccccc3F)CC2)cc(Br)c2cccnc12" — recorded % Cell Death = 53

Per the records, this molecule ( "CCCCOC(=O)c1ccc(Nc2cc(C)nc3ccc(OC)cc23)cc1" ) has % Cell Death equal to 16

In plain terms, "COc1ccc(-c2nonc2NC(=O)c2cccc(Cl)c2)cc1OC" has a documented % Cell Death of 13

Documented % Cell Death of "CCC(=O)Nc1nnc(Cc2ccc(OC)c(OC)c2)s1" : -1

Input COc1ccc(C2NCCc3c2[nH]c2ccccc32)cc1CN1CCN(c2ccc(F)cc2)CC1.Cl (stereo not given) . Output % Cell Death: 24

Data point: CC(Oc1ccc(NC(=O)c2cccs2)cc1)C(=O)c1ccc(Cl)cc1 (stereo not given) ; % Cell Death = 40

Per the records, this molecule ( OC(CNCC1CCCO1)Cn1c2ccc(Cl)cc2c2cc(Cl)ccc21 (stereo not given) ) has % Cell Death equal to 26

Given item "Cc1ccc(Nc2nc(-c3ccccn3)cs2)cc1" , the value recorded as its % Cell Death is 20

// field: % Cell Death; key: O=C(Cc1ccccc1)NC(c1ccc(Cl)cc1)c1c(O)ccc2ccccc12 (stereo not given) ; value = 18

Lab note: "Cc1ccc2c(C)nc(Nc3nc(C)cc(-c4ccccc4)n3)nc2c1" gave % Cell Death of 98

Entry "COc1ccc(-c2nonc2NC(=O)c2cccc(C)c2)cc1OC" , % Cell Death reported as -21
